test system: P. vulgatus RND KO; experiment: growth AUC normalised to DMSO control (median) (fraction of control); higher = less growth inhibition, active = hit call of the paper; details: 20 µM;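 active = normalised median growth AUC below 0.1 of DMSO control; inactive = AUC 0.1 or higher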;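 also: active when median AUC fell below 0.1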
Counter-ions that a name gives are not always drawn.
Field 'call' accepts y for active, n for inactive

Use the examples below as a reference point.
INSERT INTO measurements (compound, category_label) VALUES
  ('O=C(O)c1cn(C2CC2)c2cc(N3CCNCC3)c(F)cc2c1=O [Ciprofloxacin hydrochloride monohydrate]', 'y'),
  ('COc1ccc(C(=O)NCc2cccnc2)cc1C(=O)NCc1cccnc1 [Picotamide monohydrate]', 'n');

Enquiry: Identify the outcome logged in this assay for the compound shown: CC(C)(C)NC[C@H](O)c1ccc(O)c(CO)c1 [Levalbuterol hydrochloride]
Return: n

Enquiry: Also Nc1ccc2cc3ccc(N)cc3nc2c1 [Proflavine hemisulfate] ?
Return: n

Enquiry: And the next one, C[C@]12CC[C@@H]3c4ccc(O)cc4CC[C@H]3[C@@H]1C[C@@H](O)[C@@H]2O [Estriol] ?
Return: n

Data credit: the supplement of paper PMC12350171
